# protocol_description: MRT (0 to t) in BALB/c male mouse at 1 mg/kg, iv measured upto 24 hrs by LC-MS/MS analysis
# Format: ADME, organism-based
# experimental_context: in vivo
metric_name: MRT last at 24 h (min)
// return numeric value only (unit: min, not printed)

For C=CC(=O)Nc1cccc(C)c1Nc1ncc(C#Cc2cccc(C(=O)Nc3ccc(CN4CCN(C)CC4)c(C(F)(F)F)c3)c2)cn1 the compound record lists MRT last at 24 h as 46.2

* * *

# protocol_description: Tmax in BALB/c male mouse at 10 mg/kg, po measured upto 24 hrs by LC-MS/MS analysis
# Assay type: ADME, organism-based
# experimental_context: in vivo
metric_name: Tmax (h)
// return numeric value only (unit: h, not printed)

For C=CC(=O)Nc1cccc(C)c1Nc1ncc(C#Cc2cccc(C(=O)Nc3ccc(CN4CCN(C)CC4)c(C(F)(F)F)c3)c2)cn1 the compound record lists Tmax as 1

* * *

# protocol_description: Half life in BALB/c male mouse at 10 mg/kg, po measured upto 24 hrs by LC-MS/MS analysis
# Assay type: ADME, organism-based
# experimental_context: in vivo
metric_name: half-life (h)
// return numeric value only (unit: h, not printed)

For C=CC(=O)Nc1cccc(C)c1Nc1ncc(C#Cc2cccc(C(=O)Nc3ccc(CN4CCN(C)CC4)c(C(F)(F)F)c3)c2)cn1 the compound record lists half-life as 1.4
